molecular target: Ephrin type-A receptor 4 [1-949,A922V] (Homo sapiens, UniProt P54764, A922V); construct: 1-949; experiment: Enzyme-linked Immunosorbent Assay; details: pH 7.5
Overview of recorded IC50 for various molecules
Answer format: numeric, µM implied, no suffix.

Below, 2 molecules whose answers are already recorded.
{"chemical-smiles": "Cc1ccc(C)n1-c1ccc(O)c(C(=O)O)c1", "IC50 (µM)": 10}
{"chemical-smiles": "O=C(/C=C/c1ccc(-c2ccc(O)c(C(=O)O)c2)o1)/C=C/c1ccc(-c2ccc(O)c(C(=O)O)c2)o1", "IC50 (µM)": 2.6}

Turning to the following molecule.
stdin: Consider the molecule Cc1ccc(C)n1-c1ccc(C(=O)O)c(O)c1 and give its measured IC50.
stdout: 1.3
